# Test system: M. mycetomatis genome strain MM55
# ASSAY INFO: CLSI M38-A2 based in vitro susceptibility screening (XTT or resazurin), growth at fixed concentration
# Format: cell-based, Madurella mycetomatis
# RUN PARAMETERS: Madurella mycetomatis, 100 uM, replicate (first column); read-out: Percentage survival at 100um, 100 uM A
Reported activity at 100 µM by item:
I'd appreciate it if you included the unit after the number.

COMPOUND	activity at 100 µM
CC(=O)N1CCN(c2ccc(OCC3COC(Cn4ccnc4)(c4ccc(Cl)cc4Cl)O3)cc2)CC1 (stereo not drawn) [MMV637533, Ketoconazole, reference compound]	1.43%
O=C(O)c1ccccc1Sc1ncnc2sc3c(c12)CCC3 [MMV1579878]	1.56%
COc1cc(C2C3=C(CC(C)(C)CC3=O)Nc3ccccc3N2C(C)=O)ccc1OCc1ccccc1 (stereo not drawn) [MMV1634557]	92.5%

Task: Quick one: activity at 100 µM for CONC(=N)c1ccc(-c2ccc(-c3ccc(C(=N)NOC)cc3)o2)cc1 [MMV000059] ?
Output: 101%

Task: Same question, Cc1ccc(Oc2ccccc2-c2csc(NC3=NCCCN3)n2)c(C)c1 [MMV1634493] this time
Output: 1.69%

Task: Same question, Cc1cc(C)n(O)c(=O)c1 [MMV1782389] this time
Output: 67.6%

Task: Same question, C[C@@H](NC(=O)c1ccccc1-c1ccccc1)B(O)O [MMV1582493] this time
Output: 92.5%

Task: Same question, NCC(=O)Nc1ccc(-n2nc(C(F)(F)F)cc2-c2ccc3c(ccc4ccccc43)c2)cc1 [MMV1578560] this time
Output: -6.61%

Task: Same question, C[C@@H](O)[C@H](N)C(=O)NS(=O)(=O)c1cccc(-c2ccc3[nH]ncc3c2)c1 [MMV1582494] this time
Output: 99.3%
